tested on: human platelets; test: Human in vitro platelet aggregation; type: cell-based; details: inducer Epinephrine 1 μM, primary aggregation, read-out: 50% inhibition point, IC50, against human in vitro platelet aggregation
reported-endpoint: pIC50
In textbook form, pIC50 equals minus log to base ten of the concentration in mol/L.

**Q:** Recorded pIC50 for CC/C=C\C/C=C\C/C=C\C/C=C\C/C=C\C/C=C\CCC(=O)NCCC1CCCN1C (racemic) [Compound 2] , please?
**A:** 4.48

---

Tested on: human platelets
Experiment: Human in vitro platelet aggregation
Assay type: cell-based
Settings: inducer Arachidonic acid (1˜2) μM, read-out: 50% inhibition point, IC50, against human in vitro platelet aggregation
Protocol: From each of the large brachial veins of human volunteers, 10 ml of blood per person was drawn using an 18G syringe needle. The blood was gently dropped into a 15 ml Falcon tube containing 1 ml of 3.8% sodium citrate (Citral, Yamanouchi Pharmaceutical). A stopper for the tube was closed, and slowly inverted for mixing. […] The platelet density of PRP was measured with a blood cell counter (Sysmex), and diluted with PPP to adjust the platelet density to 300,000 platelets/μl. […]
reported-endpoint: IC50
Respond with a number, then the unit of measure.

**Q:** Recorded IC50 for CC/C=C\C/C=C\C/C=C\C/C=C\C/C=C\C/C=C\CCC(=O)NCCC1CCCN1C (racemic) , please?
**A:** 80 µM
